Entries and their measured IC50 follow.
tested on: rat skeletal muscle cell line, L6; assay: cells; format: cell-based; details: Rattus norvegicus; Table 1; read-out: IC50 Toxicity (L6)

Known IC50 results, listed for orientation:
Respond only with IC50 recorded for COc1cc(/C=C2\Oc3ccccc3C2=O)cc(OC)c1OC [Aurone 2002] > 100 µM

Respond only with IC50 recorded for O=C1/C(=C/c2ccccc2Cl)Nc2ccccc21 [AA11] > 200 µM

Respond only with IC50 recorded for O=C1/C(=C/c2cccs2)Nc2ccccc21 [AA9] > 200 µM

Respond only with IC50 recorded for O=C1/C(=C/c2cccc(F)c2)Oc2ccccc21 [Aurone 9024] > 100 µM

From here, focus on the item given below.
Respond only with IC50 recorded for O=C1/C(=C/c2ccccc2)Nc2ccccc21 [AA8] > 100 µM

Where do these numbers come from? They come from patent US20200399238A1.
